Experiment: TLR3 IRF3 reporter activation blockers – cell-based, poly I:C stimulus, luciferase, 10K MLSCN set, primary screen (AID 602277)
Settings: HEK293-TLR3 RL24 IRF3 luciferase reporter, at 10 µM, stronger effect = higher value
Activity calls are given as the source filed them.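 The calls were made as follows: active = inhibition of the reporter signal at or above 50%; inactive = inhibition below 50%.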
Measure: inhibition

>>> obs_value("Cc1ccccc1NC(=O)C1CC(=O)N(c2ccccc2F)C1 (stereo unspecified)")
"28.8% (inactive)"
>>> obs_value("Cc1ccc(S(=O)(=O)N2C(=O)CCC2C(=O)Nc2ccc3c(c2)OCCO3)cc1 (stereo unspecified)")
"27.4% (inactive)"
>>> obs_value("CCOC(=O)Cc1cc(=O)n2[nH]c(C)c(-c3ccc(OC)cc3)c2n1")
"22.5% (inactive)"
>>> obs_value("C#CCN1C(=O)C(O)(CC(=O)c2cc(OC)ccc2OC)c2ccccc21 (stereo unspecified)")
"20% (inactive)"
>>> obs_value("CC1=C(C(=O)NCc2ccco2)C2(CCC(C)CC2)OC1=O (stereo unspecified)")
"23.3% (inactive)"
>>> obs_value("O=C(Cn1cc2c(n1)CCCCC2)N1CCc2ccccc2C1")
"-17.6% (inactive)"

* * *

Experiment: reduction of polyQ htt aggregates in cells – imaging, exon1htt(103Q)mCFP cells, high-content imaging, primary screen (AID 483);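 also: compound exposure lasted 3 days before fixation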
Settings: exon1htt(103Q)mCFP cell line, aggregate imaging, at 2 µM; stronger effect = higher value
Entries annotated with measured inhibition of aggregation
Measure: inhibition of aggregation (%)

>>> obs_value("O=C(Cn1ccc2ccccc2c1=O)Nc1ccc2c(c1)OCO2")
1
>>> obs_value("O=C(O)CCc1ccc(-c2ccc(Br)cc2)n1CC(=O)O")
-4.6
>>> obs_value("Cc1ccc(NC(=O)c2ccco2)cc1NC(=O)CSc1nnc(-c2cccs2)n1C")
16.8
>>> obs_value("COC(=O)c1ccsc1NC(=O)CN1C(=O)CCC1=O")
2.9
>>> obs_value("O=C1N(c2ccccc2)C2CS(=O)(=O)CC2N1c1ccc(Br)cc1 (stereo unspecified)")
4
>>> obs_value("Cn1c(=O)c(C(=O)Nc2cccnc2)c(O)c2ccccc21")
0.5
>>> obs_value("CCCS(=O)(=O)N1CCC(C(=O)NCCN2CCCC2)CC1")
12.3
>>> obs_value("COc1cccc(-c2nc(CS(=O)(=O)CC(=O)NCc3ccc(Cl)cc3)c(C)o2)c1")
-4.4
>>> obs_value("CC(C)Oc1ccc(N2CC(C(=O)Nc3ccccc3F)CC2=O)cc1 (stereo unspecified)")
-2
>>> obs_value("CCc1nnc(NC(=O)c2ccc(COc3ccccc3)o2)s1")
-1.8
>>> obs_value("COCCn1nnnc1C(c1ccccc1OC)N1CCc2ccccc2C1 (stereo unspecified)")
37.6

* * *

# nuclei count annotations
Assay: endothelial E-selectin expression blockers – imaging, HUVEC, immunofluorescence, MLSMR starter and 10KST1 sets, primary screen (AID 487);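 also: 100% = median nuclei count of all wells on the same plate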
Details: HUVEC TNFalpha-induced E-selectin immunofluorescence imaging, at 2 µM; measured here: cell number, toxicity
Measure: nuclei count (%)

>>> obs_value("CCCN(C(=O)CSc1nnc(-c2ccoc2C)n1N)C1CCS(=O)(=O)C1 (stereo unspecified)")
108
>>> obs_value("COc1ccccc1CNC(=O)C1CCCN(S(=O)(=O)c2cnc[nH]2)C1 (stereo unspecified)")
103
>>> obs_value("COCCCN(C)C1CCN(C(=O)Nc2ccc(F)cc2)CC1")
102
>>> obs_value("CCOC(=O)c1cnc(C(C)(C)C)[nH]c1=O")
142
>>> obs_value("CC(C)NC(=O)c1ccc2c(c1)nnn2C")
116
>>> obs_value("COCC(=O)N(C)c1nnc(-c2ccccn2)s1")
107
>>> obs_value("NC(=O)CSc1nnc(-c2cc3ccccc3o2)n1Cc1ccccc1")
129
>>> obs_value("Cc1cccc(NC(=O)CCN2CCN(C/C=C/c3ccccc3)CC2)c1")
104
>>> obs_value("COc1cccc(NC(=O)CSc2nnc(-c3cc(-c4ccccn4)nc4ccccc34)o2)c1")
141
>>> obs_value("Nc1ncnc2nc(Sc3ccc(Cl)cc3)[nH]c12")
108
>>> obs_value("COCCNC(=O)C(c1ccc(C)o1)N(Cc1ccc(OC)cc1)C(=O)Cn1nnc2ccccc21 (stereo unspecified)")
82.9

Where do the numbers come from? From PubChem BioAssay.
